The measurements presented in this section are drawn from patent US20260151494A1.

SYSTEM: T1, apical domain of human CD71 (human, UniProt P02786 189-383, limits assumed)
T1 construct: domain: apical domain; Screen 4 panned on human apical domains, the ELISA text says only 'apical domain'
T1 sequence (P02786 189-383 limits assumed): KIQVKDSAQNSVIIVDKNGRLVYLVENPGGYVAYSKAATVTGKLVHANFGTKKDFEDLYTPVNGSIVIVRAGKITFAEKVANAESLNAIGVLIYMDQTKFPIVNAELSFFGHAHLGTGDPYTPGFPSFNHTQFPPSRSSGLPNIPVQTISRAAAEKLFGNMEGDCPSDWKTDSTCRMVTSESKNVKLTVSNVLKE
ASSAY_METHOD_TEXT: primary ELISA, RLU over HSA
METRIC_NAME: Apical domain:HSA

Please review the entries below; each comes with its answer.
1) CD71-binding FN3 domain of SEQ ID NO: 471 (designed binder) MLPAPKNLVVSRVTEDSARLSWTAPDAAFDSFTIWYYESPTGGEAIVLTVPGSERSYDLTGLKPGTEYMVFIQGVKGGCFSTPLYAIFTT
98
2) CD71-binding FN3 domain of SEQ ID NO: 525 (designed binder) MLPAPKNLVVSRVTEDSARLSWTAPDAAFDSFFIGYLEPQPPGEAIALYVPGSERSYDLTGLKPGTEYNVTIQGVKGGFPSEPLVATFTT
48

a. CD71-binding FN3 domain of SEQ ID NO: 505 (designed binder) MLPAPKNLVVSRVTEDSARLSWTALDAAFDSFFIGYLEPQPPGEAIHLFVPGSERSYDLTGLKPGTEYNVTIQGVKGGFPSEPLIANFTT
b. CD71-binding FN3 domain of SEQ ID NO: 499 (designed binder) MLPAPKNLVVSRVTEDSARLSWTAPDAAFDSFFIGYLEPQPPGEAISLYVPGSERSYDLTGLKPGTEYNVTIQGVKGGFPSSPLFADFTT
q: Pick one: a or b . Which has the bigger Apical domain:HSA number? Please respond with the label that marks your chosen entry.
a: b
